The following variants are shown together with reported protein stability index values.
B1: TCAP (parent)
chain: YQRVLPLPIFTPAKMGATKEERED

# Variants of: B1
# Measurement Notes: protein stability index of a GFP-peptide fusion (GPS, HEK-293T) (PSI 1-6); higher = more stable;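 also: lentivirally expressed fusions sorted by FACS into six bins by GFP to DsRed ratio, PSI derived from sequencing read proportions per bin multiplied by bin number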
# Experimental Context: c terminus: a fixed tail appended

{"columns": ["Changes", "protein stability index"],
 "data": [
  ["K19S", 2.08],
  ["L7G", 2.46],
  ["K14N", 2.32],
  ["P12T", 3.26],
  ["A17P", 1.97],
  ["E23Y", 1.93],
  ["E20D", 2.02],
  ["V4A", 1.71],
  ["P6W", 1.56],
  ["Q2K", 4.35],
  ["Q2P", 1.55],
  ["T11N", 3.49],
  ["G16V", 2.39],
  ["L7D", 2.1],
  ["V4K", 1.8],
  ["R22M", 1.9],
  ["E23L", 2.22],
  ["K14R", 2.21],
  ["R22A", 1.9],
  ["A13G", 2.38],
  ["E20C", 1.87],
  ["T11Q", 3.44],
  ["A17I", 1.84],
  ["L5P", 2.33],
  ["Y1I", 3.9],
  ["P8Y", 2.51],
  ["D24N", 2.22],
  ["E20F", 1.72],
  ["E20H", 2.78],
  ["T18V", 2.38],
  ["T18N", 2.06],
  ["G16D", 1.92],
  ["D24T", 3.05],
  ["Q2S", 1.87],
  ["K19V", 1.63],
  ["E20P", 1.92],
  ["K19M", 2.5],
  ["F10R", 4.18]
]}
